# assayed_system: Replicative DNA helicase DnaB (Mycobacterium tuberculosis, UniProt P9WMR3)
# Sequence (P9WMR3 whole entry): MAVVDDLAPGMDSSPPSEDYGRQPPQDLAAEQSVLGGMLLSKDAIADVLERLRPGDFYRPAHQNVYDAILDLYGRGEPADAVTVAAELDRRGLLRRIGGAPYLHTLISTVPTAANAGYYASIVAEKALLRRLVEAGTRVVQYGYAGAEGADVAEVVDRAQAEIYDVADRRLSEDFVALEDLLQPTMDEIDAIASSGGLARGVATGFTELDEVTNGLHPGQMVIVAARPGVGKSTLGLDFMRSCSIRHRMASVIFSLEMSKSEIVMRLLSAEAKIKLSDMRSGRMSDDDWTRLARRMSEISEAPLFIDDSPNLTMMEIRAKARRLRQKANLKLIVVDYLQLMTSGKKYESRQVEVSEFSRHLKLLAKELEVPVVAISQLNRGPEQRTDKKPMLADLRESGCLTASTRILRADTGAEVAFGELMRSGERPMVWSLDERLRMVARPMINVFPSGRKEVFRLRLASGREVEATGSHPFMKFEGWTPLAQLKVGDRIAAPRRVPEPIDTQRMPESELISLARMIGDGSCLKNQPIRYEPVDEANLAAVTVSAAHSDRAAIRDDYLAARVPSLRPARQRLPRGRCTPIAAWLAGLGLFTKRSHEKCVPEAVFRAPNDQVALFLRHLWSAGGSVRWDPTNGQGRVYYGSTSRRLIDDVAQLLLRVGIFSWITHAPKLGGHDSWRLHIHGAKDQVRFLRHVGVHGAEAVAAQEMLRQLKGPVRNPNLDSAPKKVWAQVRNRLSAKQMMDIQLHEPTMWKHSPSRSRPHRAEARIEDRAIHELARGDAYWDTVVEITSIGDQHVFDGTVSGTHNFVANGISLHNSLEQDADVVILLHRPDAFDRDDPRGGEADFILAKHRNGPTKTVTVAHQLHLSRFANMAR
# measurement_notes: DnaB intein splicing inhibitors, dose response, biochemical, cell-free fluorescence (AID 449749)
# Type: functional
Activity calls are given as the source filed them. Cut-off read from the data, not from the text of the source: actives have a measured AC50 and inactives only a lower limit.
Would you mind answering with one of these outcomes? active, inactive

Consider the following illustrative entries.
| molecule | label_class |
| --- | --- |
| CCOc1ccc(N2C(=O)/C(=C\c3ccc(OC)c(O)c3)S(=O)(=O)C2c2cccc([N+](=O)[O-])c2)cc1 (configuration not stated) | active |
| Cc1ccc(NC2=C(NCCO)C(=O)c3ccccc3C2=O)cc1 | active |
| Cc1ccc(C[n+]2c(-c3ccc(C)cc3)cc(-c3ccc(C)cc3)cc2-c2ccc(C)cc2)cc1.[O-][Cl+3]([O-])([O-])[O-] | active |

IN: Query: recorded result category for "COc1cc(C=C2C(=O)c3ccccc3C2=O)ccc1O" in this test
OUT: inactive

IN: Test call for this molecule, please: "Cc1ccc(N2C(=O)NC(=O)/C(=C/c3ccc(OC(=O)c4cccs4)cc3)C2=O)cc1"
OUT: active

IN: Entry "CSc1nc(-c2ccc(Cl)cc2)nn1C(=O)c1ccco1" : call = ?
OUT: active

IN: What outcome does the record of this test show for "CCS(=O)(=O)c1ncc(Cl)c(C(=O)Nc2ccc(S(=O)(=O)N3CCC(C)CC3)cc2)n1" ?
OUT: active

IN: Name the outcome recorded for "Cc1nccn1-c1c([N+](=O)[O-])c(=O)n(C)c2ccccc12" in the assay.
OUT: active

IN: Outcome logged for "Fc1ccc(-[n+]2nc(Nc3ccccc3)sc2-c2c3ccccc3cc3ccccc23)cc1" in this assay:
OUT: inactive
